# study system: HCV NS3 domain of genotype 4a (Hepatitis C virus genotype 4a, UniProt O39929)
# Construct: NS3 protease domain 1-181 aa+N-terminal T7 tag and C-terminal His tag; T7 tag (N); made in house; host or cells: E. coli Rosette (DE3) pLysS
# test method notes: Binding assay by Differential Static Light Scattering (DSLS): aggregation temperature of NS3
# settings: NS3 domain 15.0 μM with equimolar compound; shift against NS3 alone
hey, just use Fulfilled if measured ΔTagg (aggregation temperature shift of NS3) is less than 0.5 °C, otherwise Not fulfilled

{"entry smiles": "CCCCCCNCc1nc(C(=O)NCc2ccccn2)c[nH]1", "cat": "Not fulfilled"}
{"entry smiles": "CC(=O)NCCNCc1nc(C(=O)NCc2ccccn2)c[nH]1", "cat": "Not fulfilled"}
{"entry smiles": "CC(C)CCCCCNCc1ncc(C(=O)NCc2ccccn2)[nH]1", "cat": "Not fulfilled"}
{"entry smiles": "O=C(NCc1ccccn1)c1cnc(CNCCOC2CCCCC2)[nH]1", "cat": "Fulfilled"}

Say whether its ΔTagg (aggregation temperature shift of NS3) is strictly beneath 0.5 °C. Entry: CCCCCCNCc1ncc(C(=O)NCc2ccccn2)[nH]1
Fulfilled

Say whether its ΔTagg (aggregation temperature shift of NS3) is strictly beneath 0.5 °C. Entry: CNC(=O)CNC(=O)c1cnc(CNCCNC(C)=O)[nH]1
Fulfilled
